tested-system: Butyrylcholinesterase (Equus caballus, UniProt Q9N1N9)
Sequence (Q9N1N9 whole entry): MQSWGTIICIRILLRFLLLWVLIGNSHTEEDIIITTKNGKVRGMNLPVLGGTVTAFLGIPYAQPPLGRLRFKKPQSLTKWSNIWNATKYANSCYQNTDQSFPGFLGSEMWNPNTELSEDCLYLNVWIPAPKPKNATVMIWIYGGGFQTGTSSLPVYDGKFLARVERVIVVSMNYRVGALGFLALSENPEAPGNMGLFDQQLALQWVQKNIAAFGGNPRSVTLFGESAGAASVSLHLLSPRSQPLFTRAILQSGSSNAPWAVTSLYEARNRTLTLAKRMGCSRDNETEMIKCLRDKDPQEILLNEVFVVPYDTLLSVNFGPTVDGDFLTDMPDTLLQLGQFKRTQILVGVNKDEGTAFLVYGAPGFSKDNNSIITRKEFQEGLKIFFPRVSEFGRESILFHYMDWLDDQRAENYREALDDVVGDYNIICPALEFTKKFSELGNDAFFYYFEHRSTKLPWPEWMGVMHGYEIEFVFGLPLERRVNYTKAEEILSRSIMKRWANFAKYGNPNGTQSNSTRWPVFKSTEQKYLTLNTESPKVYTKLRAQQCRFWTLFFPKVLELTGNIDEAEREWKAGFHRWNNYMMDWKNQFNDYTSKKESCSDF
pIC50: −log10 of the molar value.
Where pIC50 equals or exceeds 8, the correct label is satisfied; where it does not, the label is not satisfied.

Answered cases to consult:
molecule | qualitative-label
NCCCCCCCCNc1c2c(nc3ccccc13)CCCC2 | satisfied
COc1cc(/C=C/C(=O)NCCNc2c3c(nc4ccccc24)CCCC3)ccc1O | not satisfied

Please turn your attention to the following entry.
Query: I'd appreciate it if you could say whether NCCCNc1c2c(nc3ccccc13)CCCC2 has pIC50 at least equal to 8.
Result: satisfied

* * *

tested-system: UniProt:O42275
Documented pIC50 across a set of compounds
pIC50 is a log-scale quantity: -log10 of the concentration expressed in molar.

Take a look at these entries with their results.
molecule | tested-system | reported-value
NCCCCCNc1c2c(nc3ccccc13)CCCC2 | UniProt:O42275 | 8.49
COc1cc(/C=C/C(=O)NCCCCCNc2c3c(nc4ccccc24)CCCC3)ccc1O | UniProt:O42275 | 8.36
NCCCCNc1c2c(nc3ccccc13)CCCC2 | UniProt:O42275 | 7.63

As a next step, examine the compound that follows.
Query: Please tell me: pIC50 of COc1cc(/C=C/C(=O)NCCNc2c3c(nc4ccccc24)CCCC3)ccc1O , system UniProt:O42275?
Result: 7.41

* * *

# collection of IC50 values tested on Butyrylcholinesterase (Equus caballus, UniProt Q9N1N9)
A number alone suffices; assume nM.

Query: Param readout = IC50; param system = Butyrylcholinesterase (Equus caballus, UniProt Q9N1N9); param query = NCCNc1c2c(nc3ccccc13)CCCC2 ; response: value
Result: 12.3

Query: For Butyrylcholinesterase (Equus caballus, UniProt Q9N1N9), provide IC50 of NCCCCCNc1c2c(nc3ccccc13)CCCC2 please.
Result: 5

Query: Form: Entry = NCCCCNc1c2c(nc3ccccc13)CCCC2 | System = Butyrylcholinesterase (Equus caballus, UniProt Q9N1N9) | IC50 = ____
Result: 7.1

Query: For the record COc1cc(/C=C/C(=O)NCCCNc2c3c(nc4ccccc24)CCCC3)ccc1O , what value of IC50 is listed for Butyrylcholinesterase (Equus caballus, UniProt Q9N1N9)?
Result: 27

* * *

tested-system: Acetylcholinesterase (Electrophorus electricus, UniProt O42275)
Sequence (O42275 whole entry): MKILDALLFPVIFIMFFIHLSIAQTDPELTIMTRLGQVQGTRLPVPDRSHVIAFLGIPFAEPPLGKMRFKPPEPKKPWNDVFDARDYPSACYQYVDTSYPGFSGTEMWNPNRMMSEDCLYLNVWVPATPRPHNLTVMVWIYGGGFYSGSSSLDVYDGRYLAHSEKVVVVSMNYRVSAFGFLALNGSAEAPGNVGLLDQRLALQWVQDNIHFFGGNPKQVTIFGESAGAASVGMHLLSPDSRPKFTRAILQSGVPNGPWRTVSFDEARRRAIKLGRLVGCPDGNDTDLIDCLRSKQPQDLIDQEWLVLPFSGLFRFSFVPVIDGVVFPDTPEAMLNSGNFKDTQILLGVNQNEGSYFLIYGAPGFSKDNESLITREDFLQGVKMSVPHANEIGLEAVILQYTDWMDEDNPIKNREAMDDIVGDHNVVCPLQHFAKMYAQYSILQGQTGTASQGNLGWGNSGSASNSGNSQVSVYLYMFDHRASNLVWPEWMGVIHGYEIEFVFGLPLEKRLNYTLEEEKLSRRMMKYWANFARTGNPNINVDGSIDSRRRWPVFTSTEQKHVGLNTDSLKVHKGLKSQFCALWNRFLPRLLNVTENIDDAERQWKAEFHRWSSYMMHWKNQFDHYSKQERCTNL
pIC50: −log10 of the molar value.
pIC50 of 8 or higher: 1 (yes). Under 8: 0 (no).

molecule | tested-system | qualitative-label
NCCCNc1c2c(nc3ccccc13)CCCC2 | Acetylcholinesterase (Electrophorus electricus, UniProt O42275) | 0 (no)
NCCNc1c2c(nc3ccccc13)CCCC2 | Acetylcholinesterase (Electrophorus electricus, UniProt O42275) | 0 (no)
COc1cc(/C=C/C(=O)NCCCNc2c3c(nc4ccccc24)CCCC3)ccc1O | Acetylcholinesterase (Electrophorus electricus, UniProt O42275) | 0 (no)

For the next question, use this compound.
Query: Dear colleague, could you confirm whether NCCCCCCCCNc1c2c(nc3ccccc13)CCCC2 has pIC50 at or above 8?
Result: 1 (yes)

* * *

Quick record of pIC50 values for Butyrylcholinesterase (Equus caballus).
Scale: negative log10 of molar concentration, which is what pIC50 denotes.

Sample records with pIC50:
molecule | pIC50
COc1cc(/C=C/C(=O)NCCCCCNc2c3c(nc4ccccc24)CCCC3)ccc1O | 8.17
COc1cc(/C=C/C(=O)NCCCCNc2c3c(nc4ccccc24)CCCC3)ccc1O | 8.23

Below: the item to evaluate.
Query: Query pIC50 on Butyrylcholinesterase (Equus caballus) for COc1cc(/C=C/C(=O)NCCCCCCCCNc2c3c(nc4ccccc24)CCCC3)ccc1O
Result: 7.90

The origin of these recorded values is ChEMBL document CHEMBL1145609.
